// data source = patent US11814435B2

Test system: cyBCMA
method_notes: Kinetics and affinity of cyBCMA/human IgG interactions by SPR (Bio-Rad Proteon XPR36)
Assay type: binding, cynomolgus
experimental_setup: 37° C.
quantity_name: ka (1/Ms) cyBCMA @ 37° C. (M⁻¹ s⁻¹)

L3.PY/L1.PH/H2.QR: anti-BCMA antibody (antibody, V domains shown) VH: EVQLLESGGGLVQPGGSLRLSCAASGFTFGSYAMTWVRQAPGKGLEWVSAISGSGGNTFYADQRKGRFTISRDNSKNTLYLQMNSLRAEDTAVYYCARVSPIASGMDYWGQGTLVTVSS VL: EIVLTQSPGTLSLSPGERATLSCRASQSVSPHYLAWYQQKPGQAPRLLIYGASSRATGIPDRFSGSGSGTDFTLTISRLEPEDFAVYYCQHYPYPPSFTFGQGTKVEIK: 2.42e+06
L3.PY/L3.KF/H2.LT: anti-BCMA antibody (antibody, V domains shown) VH: EVQLLESGGGLVQPGGSLRLSCAASGFTFGSYAMTWVRQAPGKGLEWVSAISLTGGNTFYADSVKGRFTISRDNSKNTLYLQMNSLRAEDTAVYYCARVSPIASGMDYWGQGTLVTVSS VL: EIVLTQSPGTLSLSPGERATLSCRASQSVSSSYLAWYQQKPGQAPRLLIYGASSRATGIPDRFSGSGSGTDFTLTISRLEPEDFAVYYCKFYPYPPSFTFGQGTKVEIK: 1.91e+06
L3.PY/L1.FF/H2.HA: anti-BCMA antibody (antibody, V domains shown) VH: EVQLLESGGGLVQPGGSLRLSCAASGFTFGSYAMTWVRQAPGKGLEWVSAISHAGGNTFYADSVKGRFTISRDNSKNTLYLQMNSLRAEDTAVYYCARVSPIASGMDYWGQGTLVTVSS VL: EIVLTQSPGTLSLSPGERATLSCRASQSVSSFFLAWYQQKPGQAPRLLIYGASSRATGIPDRFSGSGSGTDFTLTISRLEPEDFAVYYCQHYPYPPSFTFGQGTKVEIK: 2.33e+06
L3.PY/H2.DY: anti-BCMA antibody (antibody, V domains shown) VH: EVQLLESGGGLVQPGGSLRLSCAASGFTFGSYAMTWVRQAPGKGLEWVSAIDYSGGNTFYADSVKGRFTISRDNSKNTLYLQMNSLRAEDTAVYYCARVSPIASGMDYWGQGTLVTVSS VL: EIVLTQSPGTLSLSPGERATLSCRASQSVSSSYLAWYQQKPGQAPRLLIYGASSRATGIPDRFSGSGSGTDFTLTISRLEPEDFAVYYCQHYPYPPSFTFGQGTKVEIK: 2.24e+06
L3.PY/L1.FF/H2.QR: anti-BCMA antibody (antibody, V domains shown) VH: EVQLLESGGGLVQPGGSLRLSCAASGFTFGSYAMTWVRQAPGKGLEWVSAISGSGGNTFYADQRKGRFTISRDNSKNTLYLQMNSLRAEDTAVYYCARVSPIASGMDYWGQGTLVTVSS VL: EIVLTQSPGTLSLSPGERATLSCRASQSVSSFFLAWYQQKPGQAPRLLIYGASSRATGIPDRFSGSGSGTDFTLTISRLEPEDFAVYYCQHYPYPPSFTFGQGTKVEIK: 2.55e+06
L3.PY/L1.AH/H2.LT: anti-BCMA antibody (antibody, V domains shown) VH: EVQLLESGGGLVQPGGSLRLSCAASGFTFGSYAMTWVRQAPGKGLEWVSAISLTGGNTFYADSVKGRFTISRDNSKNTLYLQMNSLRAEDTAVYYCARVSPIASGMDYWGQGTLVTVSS VL: EIVLTQSPGTLSLSPGERATLSCRASQSVSAHYLAWYQQKPGQAPRLLIYGASSRATGIPDRFSGSGSGTDFTLTISRLEPEDFAVYYCQHYPYPPSFTFGQGTKVEIK: 2.19e+06
L3.PY/H2.QL: anti-BCMA antibody (antibody, V domains shown) VH: EVQLLESGGGLVQPGGSLRLSCAASGFTFGSYAMTWVRQAPGKGLEWVSAISGSGGNTFYADQLKGRFTISRDNSKNTLYLQMNSLRAEDTAVYYCARVSPIASGMDYWGQGTLVTVSS VL: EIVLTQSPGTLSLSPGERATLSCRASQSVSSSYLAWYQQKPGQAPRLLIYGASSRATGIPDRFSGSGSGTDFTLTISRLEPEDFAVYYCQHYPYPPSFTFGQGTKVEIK: 2.05e+06
L3.PY/H2.QR: anti-BCMA antibody (antibody, V domains shown) VH: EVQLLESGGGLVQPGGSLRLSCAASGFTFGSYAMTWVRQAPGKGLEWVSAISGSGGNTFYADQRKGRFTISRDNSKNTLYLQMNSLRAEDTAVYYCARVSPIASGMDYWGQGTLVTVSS VL: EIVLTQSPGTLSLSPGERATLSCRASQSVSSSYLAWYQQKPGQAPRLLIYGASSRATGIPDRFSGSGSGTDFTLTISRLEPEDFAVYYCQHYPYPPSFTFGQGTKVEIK: 2.18e+06
